# Test system: GAK;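 note: KINOMEscan kinase panel screen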
# details: concentration: 1 μM, replicates: in singlicate; n = 1
The following molecules are listed with their measured %Inh values.

{"columns": ["molecule", "result-unit", "%Inh"],
 "data": [
  ["CSc1ccc(NC2=C(c3ccc(Cl)cc3)C(=O)NC2=O)cc1 [SB-317658]", "%", 12],
  ["CS(=O)(=O)c1cccc(CNc2nc(Nc3ccc4c(c3)CCC(=O)N4)ncc2C(F)(F)F)c1", "%", 16],
  ["Cc1ccc(C)c(NC(=O)Nc2ccc(C)c(-c3ccc(C(=O)Nc4ccncc4)cc3)c2)c1 [GSK1398473]", "%", 0],
  ["Fc1cc(Cl)ccc1Nc1ccnc2cc(-c3ccc(CN4CCSCC4)o3)ccc12 [GW560106]", "%", 84]
]}
